Biological target: UniProt Q02769
Sequence (Q02769 whole entry): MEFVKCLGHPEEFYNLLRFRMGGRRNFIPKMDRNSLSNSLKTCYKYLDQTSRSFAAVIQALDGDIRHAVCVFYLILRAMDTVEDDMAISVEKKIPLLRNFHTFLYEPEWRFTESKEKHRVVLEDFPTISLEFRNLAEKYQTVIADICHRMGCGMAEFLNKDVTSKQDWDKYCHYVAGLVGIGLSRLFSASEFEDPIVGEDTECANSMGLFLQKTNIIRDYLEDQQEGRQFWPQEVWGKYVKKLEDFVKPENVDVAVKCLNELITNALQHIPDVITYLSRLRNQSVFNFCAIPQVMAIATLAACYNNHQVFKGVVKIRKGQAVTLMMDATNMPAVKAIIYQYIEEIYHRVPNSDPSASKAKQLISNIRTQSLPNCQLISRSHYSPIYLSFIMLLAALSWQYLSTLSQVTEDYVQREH
pIC50: −log10 of the molar value.
Rule: pIC50 under 8 gives No, otherwise Yes.

| compound | discreteLabel |
| --- | --- |
| CC(C)=CCC/C(C)=C/CCCCCC(P(=O)(O)O)P(=O)(O)O | Yes |
| CC(C)=CCC/C(C)=C/CCC(P(=O)(O)O)P(=O)(O)O | No |
| CC(C)=CCC/C(C)=C/CCCC([PH](=O)O)P(=O)(O)O (stereo unspecified) | Yes |
| CC(C)=CCC/C(C)=C/CC/C(C)=C/CCCC(C(=O)O)P(=O)(O)O (stereo unspecified) | No |
| CC(C)=CCC/C(C)=C/CCCCCC(P(C)(=O)O)P(=O)(O)O (stereo unspecified) | No |
| O=C(O)C(CCCc1ccc(-c2ccccc2)cc1)P(=O)(O)O (stereo unspecified) | No |

###

Biological target: UniProt:Q02769
Each entry below lists one item and its recorded IC50 value.
measurementLabel: IC50

| compound | measurementLabel | valueReported |
| --- | --- | --- |
| CC(C)=CCC/C(C)=C/CC/C(C)=C/CCCC(P(C)(=O)O)P(=O)(O)O (stereo not given) | IC50 | 12.9 nM |
| CC(C)=CCC/C(C)=C/CC/C(C)=C/CCCCCCC(P(=O)(O)O)P(=O)(O)O | IC50 | 11.8 nM |
| CC(C)=CCC/C(C)=C/CCCCCCCC(P(C)(=O)O)P(=O)(O)O (stereo not given) | IC50 | 8.7 nM |
| COCP(=O)(O)C(CCC/C=C(\C)CC/C=C(\C)CCC=C(C)C)P(=O)(O)O (stereo not given) | IC50 | 6.5 nM |
| CC(C)=CCC/C(C)=C/CC/C(C)=C/CCCCC(P(C)(=O)O)P(=O)(O)O (stereo not given) | IC50 | 6.5 nM |

The origin of these recorded values is ChEMBL document CHEMBL1128430.
